assay: Antagonist activity at human CCR4 receptor expressed in mouse B300-19 cells assessed as CCL22-induced chemotaxis
Readout label: pIC50
Please express pIC50 as -log10 of the molar concentration.

# example entries with known answers
Compound	pIC50
COc1cc2nc(N3CCC(N4CCOC(CO)C4)CC3)nc(Nc3ccc(Cl)cc3)c2cc1OC (stereo not drawn)	6.21
COc1cc2nc(N3CCC(N4CCCCC4)CC3)nc(NC3CCCCCC3)c2cc1OC	6.85
COc1cc2nc(N3CCC(N4CCCC(CO)C4)CC3)nc(Nc3ccc(Cl)cc3)c2cc1OC (stereo not drawn)	7.64
COc1cc2nc(N3CCC(N4CCCC(OC)C4)CC3)nc(Nc3ccc(Cl)cc3)c2cc1OC (stereo not drawn)	6.29
COc1cc2nc(N3CCC(N4CCCC(CO)C4)CC3)nc(NC3CCCCCC3)c2cc1OC (stereo not drawn)	7.00
COc1cc2nc(N3CCC(N4CCCC(CO)C4)CC3)nc(NCc3ccc(Cl)cc3)c2cc1OC (stereo not drawn)	6.35
COc1cc2nc(N3CCC(N4CCCC(O)C4)CC3)nc(Nc3ccc(Cl)cc3)c2cc1OC (stereo not drawn)	7.07

Now turn to the next compound.
Look up pIC50 for this compound: COCC1CCCN(C2CCN(c3nc(Nc4ccc(Cl)cc4)c4cc(OC)c(OC)cc4n3)CC2)C1 (stereo not drawn)
7.19
